src = PubChem BioAssay (NCI)

System: T-47D breast
PROTOCOL SUMMARY: NCI-60 one-dose screen, 48 h
TEST SETTINGS: 10 µM unless noted
About 83,000 compounds went through this panel and 20% of them were active in at least one assay; those are over-represented in the sample as a whole. Activity calls are given as the source filed them. How the source made its calls: active means growth percent below 10; inactive means the rest.
The reply should name one outcome from yes (1) (active), no (0) (inactive)

For orientation, consider the following solved cases.
[[record]]
compound = "Cn1cccc1-c1nc2c3c(ccc2[nH]1)C(=O)c1ccccc1C3=O"
label_value = "yes (1)"

[[record]]
compound = "Cc1cc(C)nc(SC2=C(Nc3cccc(Cl)c3)C(=O)N(Cc3ccccc3)C2=O)n1"
label_value = "no (0)"


Exercise: Can you look up the reported call for Cn1ccnc1C(=O)/C=C/c1ccccc1 for me?
Solution: no (0)

Exercise: Then this compound: COc1cc(-c2nn(-c3ccc(C(=O)O)cc3)cc2C(=O)O)ccc1O
Solution: no (0)

Exercise: For Cc1ccc2c(C(C[N+](=O)[O-])c3ccco3)c(-c3ccccc3)[nH]c2c1 (stereo not given) then?
Solution: no (0)

Exercise: Same thing, different compound: Cn1ccnc1C(=O)/C=C/c1ccc(CC(=O)Nc2ccccc2)cc1
Solution: no (0)

Exercise: Same lookup for CCCN1CCN(c2ccc3nc(-c4ccc5nc(-c6ccc(OCC)cc6)[nH]c5c4)[nH]c3c2)CC1 , please.
Solution: no (0)

Exercise: And the next one, O=C(O)c1c(=O)cccc2ssc12 ?
Solution: yes (1)

Exercise: Lookup Cn1cc(C(=O)c2nc(-c3c[nH]c4ccccc34)no2)c2ccccc21
Solution: no (0)

Exercise: Let us now turn to Nc1n[nH]c2cc(F)c([C@@H]3Nc4ccc5[nH]ncc5c4[C@H]4C5CCC(C5)[C@@H]34)cc12 (stereo not given in full)
Solution: no (0)
